system: SK-MEL-2; experiment: NCI tumour cell line growth inhibition, 48 h
Calls of active or inactive are those of the source. Rule as the data show it: active = GI50 up to about 1.1 µM and inactive = higher.
measuredProperty: GI50

Examples from the recorded data:
CCCCN(C)CC(C(C)=O)C(c1ccccc1)c1c(O)c2ccccc2oc1=O (configuration not stated) ... > 100 µM (inactive)
C=C1C(=O)O[C@H]2[C@@H](O)[C@H](C)CCC/C(C)=C/CC[C@@]3(C)O[C@@H]3C[C@@H]12 ... 18.1 µM (inactive)
O=C1c2cnccc2Cc2cccc3c2N1c1ccccc1S3 ... 16.8 µM (inactive)
O=C(O)C1C2CC3C(OC(=O)C31)C2Br (configuration not stated) ... > 100 µM (inactive)
Cc1cc[n+]2c(c1)-c1cc(C)cc[n+]1CC2 ... > 100 µM (inactive)

# input Dear colleague, please send me the reported GI50 for O=C1CSC(/C=C/c2ccccc2)N1c1ccc(-n2c(-c3ccccc3)nc3ccccc3c2=O)cc1 (configuration not stated) when you can.
# output > 100 µM (inactive)

# input Dear colleague, please send me the reported GI50 for `Cc1cccc(C)c1NC(=O)C(=O)CC(=O)CO` when you can.
# output > 100 µM (inactive)
